Just for reference, paper PMC11532494 is where these values come from.

- testSystem: PsApaH (4) (Pseudomonas sp. M30-35)
- protocolDescription: Acetyl-polyamine deacetylase assay
- Format: biochemical
- assayContext: time 5 min, mean of samples
Threshold 2 mM. [acetate] mean below it: Satisfied. [acetate] mean at it or above: Not satisfied.

**Query** A record lists CC(=O)NCCCNCCCCNCCCN [N1/N12-acetylspermine] . Is its [acetate] mean below 2 mM?
**Result** Not satisfied

**Query** Another compound to look at: CC(=O)NCCCNCCCCN
**Result** Satisfied

**Query** And the next one, CC(=O)NCCCCCN ?
**Result** Not satisfied

**Query** Ok, now CC(=O)NCCCCN
**Result** Satisfied

**Query** // query: CC(=O)NCCCNCCCCNCCCN [N1-acetylspermine]
**Result** Not satisfied

----------
- testSystem: BsAcuC (2c) (Bacillus subtilis, UniProt P39067)
- Sequence (P39067 whole entry): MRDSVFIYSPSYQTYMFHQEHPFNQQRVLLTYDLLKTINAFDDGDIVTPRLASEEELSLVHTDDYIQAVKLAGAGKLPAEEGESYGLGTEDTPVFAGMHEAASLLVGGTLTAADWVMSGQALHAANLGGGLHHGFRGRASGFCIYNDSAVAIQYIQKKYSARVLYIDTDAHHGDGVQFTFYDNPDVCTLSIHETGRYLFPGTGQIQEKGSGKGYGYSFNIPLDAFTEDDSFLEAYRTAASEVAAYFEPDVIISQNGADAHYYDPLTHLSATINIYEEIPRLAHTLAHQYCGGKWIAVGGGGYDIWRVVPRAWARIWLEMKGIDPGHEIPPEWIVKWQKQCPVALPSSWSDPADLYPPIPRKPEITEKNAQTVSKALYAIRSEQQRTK
property: Ki

**Query** Item CC(/C=C/C(=O)NO)=C\[C@@H](C)C(=O)c1ccc(N(C)C)cc1 [TSA, trichostatin A] has what recorded Ki?
**Result** 400 nM

----------
- testSystem: PsApaH (4) (Pseudomonas sp. M30-35, UniProt A0A1Y0KY79)
- protocolDescription: biochemical
property: Ki

**Query** # get_value(readout='Ki', item= CC(/C=C/C(=O)NO)=C\[C@@H](C)C(=O)c1ccc(N(C)C)cc1 [TSA, trichostatin A] )
**Result** ≤ 7.56 nM

----------
Consider the following molecules; for each one, report its [acetate] mean.
- testSystem: PA1409 (Pseudomonas aeruginosa, UniProt Q9I3T5)
- Sequence (Q9I3T5 whole entry): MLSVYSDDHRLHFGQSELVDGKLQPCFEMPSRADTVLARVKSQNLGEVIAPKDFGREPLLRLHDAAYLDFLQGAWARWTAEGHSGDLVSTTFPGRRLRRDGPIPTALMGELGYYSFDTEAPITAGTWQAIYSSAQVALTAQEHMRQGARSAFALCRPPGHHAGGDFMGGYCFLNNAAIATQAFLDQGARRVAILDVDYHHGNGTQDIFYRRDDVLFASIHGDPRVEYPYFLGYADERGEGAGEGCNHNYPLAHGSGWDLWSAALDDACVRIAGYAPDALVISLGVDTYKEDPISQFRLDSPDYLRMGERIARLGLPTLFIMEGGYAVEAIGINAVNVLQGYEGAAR
- protocolDescription: Acetyl-polyamine deacetylase assay (positive control)
- Type: biochemical
- assayContext: PA1409, time 20 min, mean of samples
Respond with the bare value in mM.

**Query** Need [acetate] mean, item CC(=O)NCCCNCCCCNCCCN [N1-acetylspermine]
**Result** 24.8682

**Query** Then CC(=O)NCCCCN [N1-acetylputrescine] ?
**Result** 10.685

**Query** Next entry: CC(=O)NCCCCNCCCN [N8-acetylspermidine]
**Result** 23.3615

**Query** Would you kindly repeat that for CC(=O)NCCCNCCCCN [N1-acetylspermidine] ?
**Result** 14.5156

**Query** For CC(=O)NCCCNCCCCNCCCN [N1/N12-acetylspermine] then?
**Result** 33.9653

**Query** How about CC(=O)NCCCCCN [N1-acetylcadaverine] ?
**Result** 22.2396

----------
- testSystem: LcApaH (3) (Legionella cherrii, UniProt A0A0W0SGS1)
- Sequence (A0A0W0SGS1 1-425): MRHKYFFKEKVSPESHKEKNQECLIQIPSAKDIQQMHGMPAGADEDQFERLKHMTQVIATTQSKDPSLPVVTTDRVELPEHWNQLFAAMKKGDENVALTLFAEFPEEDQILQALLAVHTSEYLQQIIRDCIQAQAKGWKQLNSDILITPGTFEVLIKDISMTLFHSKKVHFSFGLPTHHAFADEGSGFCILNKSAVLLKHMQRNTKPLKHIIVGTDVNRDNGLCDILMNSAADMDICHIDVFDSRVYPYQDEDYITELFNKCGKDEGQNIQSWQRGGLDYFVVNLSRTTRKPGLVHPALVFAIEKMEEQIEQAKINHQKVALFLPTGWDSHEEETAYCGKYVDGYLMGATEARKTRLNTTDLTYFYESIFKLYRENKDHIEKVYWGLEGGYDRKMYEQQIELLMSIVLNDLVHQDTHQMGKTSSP
property: pKi
Scale for pKi: -log10 of concentration given in mol/L; no unit attached.

**Query** // returns reported pKi for input O=C(CCCCCCC(=O)Nc1ccccc1)NO [SAHA, suberoylanilide hydroxamic acid]
**Result** 6.51

**Query** Check CC(/C=C/C(=O)NO)=C\[C@@H](C)C(=O)c1ccc(N(C)C)cc1 too.
**Result** 8.40

----------
- testSystem: PsApaH (4) (Pseudomonas sp. M30-35, UniProt A0A1Y0KY79)
- protocolDescription: Acetyl-polyamine deacetylase assay
- Assay type: biochemical
- assayContext: time 45 min, mean of samples
Param threshold (10 mM) applies to [acetate] mean; output yes (1) when value >= threshold, no (0) when value < threshold.

**Query** Quick check, [acetate] mean >= 10 mM? CC(=O)NCCCNCCCCN [N1-acetylspermidine]
**Result** no (0)

**Query** Now try CC(=O)NCCCNCCCCNCCCN [N1-acetylspermine] .
**Result** yes (1)

**Query** Repeat for the following molecule: CC(=O)NCCCCN [N1-acetylputrescine]
**Result** yes (1)

**Query** // query: CC(=O)NCCCCNCCCN [N8-acetylspermidine]
**Result** no (0)

**Query** Okay, and CC(=O)NCCCNCCCCNCCCN [N1/N12-acetylspermine] ?
**Result** yes (1)
